Assay: clinical
Conditions: male, human, in vivo, iv, t max, range
Please respond with reported Tmax for every item in the list.

COc1c(OCCCN2CCOCC2=O)ccc2c1N=C(NC(=O)c1cnc(N)nc1)N1CCN=C21 [M1]	3 to 10 h

// field: Tmax; key: COc1c(OCCCN2CCOCC2)ccc2c1N=C(NC(=O)c1cnc(N)nc1)N1CCN=C21 [Copanlisib, copanlisib] ; value = 0.5 to 1 h

====

Assay: clinical
Conditions: male, human, in vivo, iv, t ½ (terminal half-life), range
experimentalEndpoint: half-life

// field: half-life; key: COc1c(OCCCN2CCOCC2)ccc2c1N=C(NC(=O)c1cnc(N)nc1)N1CCN=C21 ; value = 40 to 67 h

====

Please respond with reported Tmax for every item in the list.
Test: clinical
Details: male, human, in vivo, iv, t max, median
Give bare numbers, in h.

COc1c(OCCCN2CCOCC2=O)ccc2c1N=C(NC(=O)c1cnc(N)nc1)N1CCN=C21 [M1]	6

Now, please, on to the next compound.
// field: Tmax; key: COc1c(OCCCN2CCOCC2)ccc2c1N=C(NC(=O)c1cnc(N)nc1)N1CCN=C21 [Copanlisib, copanlisib] ; value = 1

====

Test: clinical
Settings: male, human, in vivo, iv, CL (total body clearance), geometric mean (%CV)
experimentalEndpoint: clearance

// field: clearance; key: COc1c(OCCCN2CCOCC2)ccc2c1N=C(NC(=O)c1cnc(N)nc1)N1CCN=C21 [Copanlisib, copanlisib] ; value = ~413 mL/min

====

Test: Mass balance: excretion of radioactivity, copanlisib and metabolites in urine and feces
Assay type: in vivo, human
Details: urine; HPLC with off-line radioactivity detection; 6 subjects
Please respond with reported Amount excreted in urine as this component, arithmetic mean (range) for every item in the list.

Worked cases, Amount excreted in urine as this component, arithmetic mean (range) given:
COc1c(OCCC(=O)O)ccc2c1N=C(NC(=O)c1cnc(N)nc1)N1CCN=C21 [M2]	0.34 (0.10–0.52) % of dose
COc1c(OCCCNCCO)ccc2c1N=C(NC(=O)c1cnc(N)nc1)N1CCN=C21 [M3]	0.32 (0–0.62) % of dose
COc1c(OCCCN2CCOCC2=O)ccc2c1N=C(NC(=O)c1cnc(N)nc1)N1CCN=C21 [M1]	4.47 (2.53–6.79) % of dose

Now, please, on to the next compound.
// field: Amount excreted in urine as this component, arithmetic mean (range); key: COc1c(O)ccc2c1N=C(NC(=O)c1cnc(N)nc1)N1CCN=C21 [M4] ; value = 0.15 (0.04–0.32) % of dose

====

Assay: clinical
Details: male, human, in vivo, iv, t ½ (terminal half-life), geometric mean (%CV)
experimentalEndpoint: half-life

// field: half-life; key: COc1c(OCCCN2CCOCC2)ccc2c1N=C(NC(=O)c1cnc(N)nc1)N1CCN=C21 ; value = 52 h

====

Experiment: clinical
Details: male, human, in vivo, iv, V z, range
experimentalEndpoint: Vd

// field: Vd; key: COc1c(OCCCN2CCOCC2)ccc2c1N=C(NC(=O)c1cnc(N)nc1)N1CCN=C21 ; value = 1250 to 2450 L

====

Please respond with reported Amount of dose recovered as this component in urine and feces combined for every item in the list.
Test: Mass balance: excretion of radioactivity, copanlisib and metabolites in urine and feces
Type: in vivo, human
Conditions: urine plus feces; 6 subjects

Worked cases, Amount of dose recovered as this component in urine and feces combined given:
COc1c(OCCCN2CCOCC2=O)ccc2c1N=C(NC(=O)c1cnc(N)nc1)N1CCN=C21 [M1]	11.1 % of dose
COc1c(OCCCO)ccc2c1N=C(NC(=O)c1cnc(N)nc1)N1CCN=C21 [M15]	< 2 % of dose
COc1c(OCCCN2CCOCC2)ccc2c1N=C(NC(=O)c1cnc(N)nc1)N1CCN=C21 [Copanlisib, copanlisib]	45.1 % of dose

Now, please, on to the next compound.
// field: Amount of dose recovered as this component in urine and feces combined; key: COc1c(OCCCN(C=O)CCO)ccc2c1N=C(NC(=O)c1cnc(N)nc1)N1CCN=C21 [M21] ; value = < 2 % of dose
